Hey, just so you know, these numbers are from ChEMBL document CHEMBL1131807.

I'd be grateful if you could share measured MIC for these entries.
System: Staphylococcus aureus
assay-overview: Antibacterial activity against Staphylococcus aureus novobiocin resistant strain 011HT1
Assay type: functional
Numbers only, in µg/mL.

Example entries and their recorded answers appear below.
molecule | MIC (µg/mL)
CCOCC(=O)c1c(O)oc2c(C)c(O[C@@H]3OC(C)(C)[C@H](OC)[C@@H](OC(=O)c4ccc(C)[nH]4)[C@H]3O)ccc2c1=O | 20
CO[C@@H]1[C@@H](OC(=O)c2ccc(C)[nH]2)[C@@H](O)[C@H](Oc2ccc3c(O)c(C(=O)CSC)c(=O)oc3c2C)OC1(C)C | 5

Consider the following items and state reported MIC for each.
1. CO[C@@H]1[C@@H](OC(=O)c2ccc(C)[nH]2)[C@@H](O)[C@H](Oc2ccc3c(O)c(C(=O)Nc4ccccc4)c(=O)oc3c2C)OC1(C)C
2. CONC(=O)c1c(O)oc2c(C)c(O[C@@H]3OC(C)(C)[C@H](OC)[C@@H](OC(=O)c4ccc(C)[nH]4)[C@H]3O)ccc2c1=O
3. CO[C@@H]1[C@@H](OC(=O)c2ccc(C)[nH]2)[C@@H](O)[C@H](Oc2ccc3c(O)c(NC(=O)c4ccc(O)c(CC=C(C)C)c4)c(=O)oc3c2Cl)OC1(C)C

[1.2, 5, 0.15]
